Assay: Retardation factor of the compound using hexane/ethyl acetate at ratio of 1.8:1 as solvent system
Assay type: physicochemical
Measured Endpoint: Rf

{"columns": ["Compound", "Assay Value"],
 "data": [
  ["O=C1C=CC(=O)c2c1ccc1c2OC(CI)C1 (centres undefined)", 0.48],
  ["O=C1C=CC(=O)c2c1ccc1c2OCC=C1", 0.38],
  ["CC1=CC(=O)c2c(ccc3c2OCC=C3)C1=O", 0.39],
  ["CC1=CC(=O)c2c(ccc3c2OC(CI)C3)C1=O (centres undefined)", 0.38]
]}

====

System: PC-3
Assay: Cytotoxicity against human PC3 cells assessed as inhibition of cell viability after 48 hrs by MTT assay
Format: functional, cell-based
Details: PC-3, 48 h
Quick reference: pIC50 of the listed items.
API: returns pIC50 as number; meaning -log10 of concentration in mol/L.

Some compounds with known pIC50 results, for comparison:
{"columns": ["Compound", "pIC50"],
 "data": [
  ["O=C1C=CC(=O)c2c1ccc1c2OCC=C1", 5.24],
  ["O=C1C=CC(=O)c2c(O)cccc21", 4.05],
  ["CC1=CC(=O)c2c(ccc3cc(C)oc23)C1=O", 4.51],
  ["C=CCc1ccc2c(c1O)C(=O)C=CC2=O", 4.03],
  ["CC1=CC(=O)c2c(ccc3c2OC(CI)C3)C1=O (configuration not stated)", 4.57],
  ["C=CCc1ccc2c(c1O)C(=O)C=C(C)C2=O", 4.77],
  ["CC1=CC(=O)c2c(ccc3c2OCC=C3)C1=O", 4.61],
  ["CC1=CC(=O)c2c(O)cccc2C1=O", 4.76],
  ["C=CCOc1cccc2c1C(=O)C=C(C)C2=O", 4.47],
  ["C=CCOc1cccc2c1C(=O)C=CC2=O", 4.65]
]}

Can you look up the measured pIC50 of O=C1C=CC(=O)c2c1ccc1c2OC(CI)C1 (configuration not stated) for me?
4.90

Can you look up the measured pIC50 of Cc1cc2ccc3c(c2o1)C(=O)C=CC3=O for me?
4.74

Data origin, for the record: ChEMBL document CHEMBL3286259
